// provenance: PubChem BioAssay (NCI)

The entries below are paired with their reported growth inhibition.
experiment: NCI Yeast Anticancer Drug Screen. Data for the mlh1 rad18 strain (AID 175); conditions: S. cerevisiae mlh1 rad18 strain growth inhibition; at 50.0 µM; stronger effect = higher value
Compounds without any hit were thinned out: in the full panel of roughly 79,000, 15% have a hit.
readout: growth inhibition (%)

INSERT INTO assay_data (compound, readout, observedmeasurement) VALUES
  ('O=C1CC2(CCNCC2)C(=O)N1N1CCOCC1', 'growth inhibition', 6),
  ('CC1(C)CN=C(Nc2ccc(F)cc2)S1', 'growth inhibition', -21.8),
  ('COc1ccc(C[C@@H]2NC[C@@H](O)[C@@H]2OC(C)=O)cc1', 'growth inhibition', 91.3),
  ('Cc1cc(C)n(-c2nc3ccccc3c(=O)n2-c2ccccc2)n1', 'growth inhibition', -16.9),
  ('NC(Cc1cccc(F)c1)c1nn[nH]n1 (stereo unspecified)', 'growth inhibition', -0.7),
  ('O=C(Cl)c1cc([N+](=O)[O-])cc([N+](=O)[O-])c1', 'growth inhibition', 46.6);
